Source listed as the supplement of paper PMC10567573.

B1: TRIM39 (parent)
chain: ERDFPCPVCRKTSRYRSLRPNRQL

variants of: B1; assay: protein stability index of a GFP-peptide fusion (GPS, HEK-293T) (PSI 1-6); higher = more stable; conditions: c terminus: a fixed tail appended;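 further: lentivirally expressed fusions sorted by FACS into six bins by GFP to DsRed ratio, PSI derived from sequencing read proportions per bin multiplied by bin number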
Returns 1 if the recorded protein stability index is greater than or equal to 2, and -1 otherwise.

Solved entries (count: 3):
[
  {
    "SEQ": "ERDFPCPVCRKTIRYRSLRPNRQL [S13I]",
    "CATEGORY_LABEL": 1
  },
  {
    "SEQ": "ERDFPCPVCRKTSRYRKLRPNRQL [S17K]",
    "CATEGORY_LABEL": 1
  },
  {
    "SEQ": "ERDFPCLVCRKTSRYRSLRPNRQL [P7L]",
    "CATEGORY_LABEL": 1
  }
]

(Q) Does ERDFPCPVCRKTSAYRSLRPNRQL [R14A] have a reported protein stability index of at least 2?
(A) 1

(Q) Does ETDFPCPVCRKTSRYRSLRPNRQL [R2T] have a reported protein stability index of at least 2?
(A) -1
